- protocol_text: Mouse pharmacokinetics
- Type: in vivo
- condition_notes: mouse, po; CD-1 mice, 5 mg/kg, P.O., plasma
measure: half-life (h)
The reply should contain only the number, in h.

compound	result_number
CCC(C(=O)Nc1nccc2c(-c3nc(Nc4cccc(S(C)(=O)=O)c4F)ncc3C)c[nH]c12)N1CCN(C)CC1 (stereo in doubt)	2.61
CC[C@H](C(=O)Nc1nccc2c(-c3nc(Nc4cn(C)nc4OC)ncc3C)c[nH]c12)N1CCN(C)CC1	3.79

Query: GET /values?readout=half-life&item= CC[C@H](C(=O)Nc1nccc2c(-c3nc(Nc4cccc(S(C)(=O)=O)c4F)ncc3C)c[nH]c12)N1CC2CCC(C1)N2C
Reply: 3.57

----------
- protocol_text: Mouse pharmacokinetics
- Assay type: in vivo
- condition_notes: mouse, po; CD-1 mice, 5 mg/kg, P.O., plasma; read-out: AUC0-24 hr
# Lookup of reported AUC(0-t) keyed by entry
Provide only the numeric value, understood in ng·h/mL.

compound	result_number
CC[C@H](C(=O)Nc1nccc2c(-c3nc(Nc4cn(C)nc4OC)ncc3C)c[nH]c12)N1CCN(C)CC1	10200
CCC(C(=O)Nc1nccc2c(-c3nc(Nc4cccc(S(C)(=O)=O)c4F)ncc3C)c[nH]c12)N1CCN(C)CC1 (stereo in doubt)	1680

We next turn to a different compound, shown below.
Query: Fill in: AUC(0-t) of CC[C@H](C(=O)Nc1nccc2c(-c3nc(Nc4cccc(S(C)(=O)=O)c4F)ncc3C)c[nH]c12)N1CC2CCC(C1)N2C is ___
Reply: 946

----------
- tgt: JAK2 (Homo sapiens)
- protocol_text: Cellular JAK2 activity assay: EPO-stimulated STAT5 phosphorylation in TF-1 cells
- Type: cell-based
- Design: endogenous in cells; host or cells: TF-1 cells (ATCC)
- condition_notes: EPO (10 U/mL), pSTAT5, read-out: IC50 Cell JAK2
pIC50: −log10 of the molar value.
measure: pIC50

Known results for compounds:
compound	pIC50
CCC(C(=O)Nc1nccc2c(-c3nc(Nc4cccc(S(C)(=O)=O)c4F)ncc3C)c[nH]c12)N1CCN(C)CC1 (stereo in doubt) [Example 21]	< 4.70
CCC(C(=O)Nc1nccc2c(-c3nc(Nc4cccc(S(C)(=O)=O)c4F)ncc3C)c[nH]c12)N1CCN(C)CC1 (stereo not drawn) [Example 19]	< 4.70

Query: Name the reported pIC50 value associated with the compound Cc1cnc(Nc2cccc(S(C)(=O)=O)c2F)nc1-c1c[nH]c2c(NC(=O)NC(C)C)nccc12
Reply: 4.70 to 5.00

Query: Fill blank: measured pIC50 of the compound CCC(C(=O)Nc1nccc2c(-c3nc(Nc4cn(C)nc4OC)ncc3C)c[nH]c12)N1CC(C)N(C)C(C)C1 (stereo not drawn) is ____.
Reply: < 4.70

Query: Entry COc1nn(C)cc1Nc1ncc(C)c(-c2c[nH]c3c(NC(=O)[C@@H](C)N4CCOCC4)nccc23)n1 : reported pIC50 = ?
Reply: 4.70 to 5.00

Query: What value of measured pIC50 is listed for CCC(C(=O)Nc1nccc2c(-c3nc(Nc4cccc(S(=O)(=O)CC)c4F)ncc3C)c[nH]c12)N1CCN(C)CC1 (stereo not drawn) ?
Reply: 4.70 to 5.00

Query: Which pIC50 value is on record for CC[C@@H](C(=O)Nc1nccc2c(-c3nc(Nc4cn(C)nc4OC)ncc3C)c[nH]c12)N1CCN(C)CC1 ?
Reply: > 5.00

Query: Reported pIC50 for COc1nn(C)cc1Nc1ncc(C)c(-c2c[nH]c3c(Nc4cn(C)nc4OC)nccc23)n1 : what is it?
Reply: < 4.70

Query: Can you look up the measured pIC50 of CCC(C(=O)Nc1nccc2c(-c3nc(Nc4cccc(NS(C)(=O)=O)c4F)ncc3C)c[nH]c12)N1CCN(C)CC1 (stereo not drawn) for me?
Reply: > 5.00

Query: Field request: pIC50 | item: CCC(C(=O)Nc1nccc2c(-c3nc(Nc4cccc(S(C)(=O)=O)c4F)ncc3C)c[nH]c12)N1CC2CCC(C1)N2C (stereo not drawn)
Reply: 4.70 to 5.00

Query: Can you look up the measured pIC50 of CCC(C(=O)Nc1nccc2c(-c3nc(Nc4cn(C)nc4OC)ncc3C)c[nH]c12)N1CCC(N(C)C)CC1 (stereo not drawn) for me?
Reply: > 5.00

Query: So what's the measured pIC50 for this one? CCC(C(=O)Nc1nccc2c(-c3nc(Nc4cccc(S(C)(=O)=O)c4F)ncc3F)c[nH]c12)N1CCN(C)CC1 (stereo not drawn)
Reply: < 4.70

----------
- tgt: JAK1 (Homo sapiens, UniProt P23458)
- Sequence (P23458 whole entry): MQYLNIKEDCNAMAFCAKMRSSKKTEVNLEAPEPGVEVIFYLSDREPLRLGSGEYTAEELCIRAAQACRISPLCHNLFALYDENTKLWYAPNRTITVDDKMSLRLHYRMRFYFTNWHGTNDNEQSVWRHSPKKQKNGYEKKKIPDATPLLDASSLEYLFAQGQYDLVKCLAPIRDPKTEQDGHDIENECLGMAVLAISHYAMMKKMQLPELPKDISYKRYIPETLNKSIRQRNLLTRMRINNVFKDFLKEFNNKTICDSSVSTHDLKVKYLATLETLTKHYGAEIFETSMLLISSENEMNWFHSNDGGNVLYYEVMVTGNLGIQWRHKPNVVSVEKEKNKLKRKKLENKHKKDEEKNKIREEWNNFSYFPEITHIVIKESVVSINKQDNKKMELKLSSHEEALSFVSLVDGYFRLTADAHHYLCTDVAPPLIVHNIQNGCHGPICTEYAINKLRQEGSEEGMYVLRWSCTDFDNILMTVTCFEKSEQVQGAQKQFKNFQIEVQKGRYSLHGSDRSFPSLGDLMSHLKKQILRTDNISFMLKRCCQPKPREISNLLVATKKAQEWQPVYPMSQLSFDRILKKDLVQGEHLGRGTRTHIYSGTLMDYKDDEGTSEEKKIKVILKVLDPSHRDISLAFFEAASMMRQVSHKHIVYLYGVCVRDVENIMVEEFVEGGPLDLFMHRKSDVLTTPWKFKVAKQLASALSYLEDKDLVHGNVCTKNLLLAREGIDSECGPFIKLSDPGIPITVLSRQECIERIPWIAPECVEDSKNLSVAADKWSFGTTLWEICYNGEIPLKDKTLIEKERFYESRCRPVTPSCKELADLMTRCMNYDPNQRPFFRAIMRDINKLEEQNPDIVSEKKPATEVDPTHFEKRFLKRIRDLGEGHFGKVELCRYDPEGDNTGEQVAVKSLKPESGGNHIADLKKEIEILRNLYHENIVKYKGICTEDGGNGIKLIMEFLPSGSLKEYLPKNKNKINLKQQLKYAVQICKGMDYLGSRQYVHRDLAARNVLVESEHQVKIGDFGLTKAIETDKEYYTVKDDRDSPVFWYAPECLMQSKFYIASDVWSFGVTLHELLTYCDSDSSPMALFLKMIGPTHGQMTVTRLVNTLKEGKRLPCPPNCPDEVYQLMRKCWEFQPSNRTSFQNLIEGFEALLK
- protocol_text: Cellular JAK1 activity assay: IL-6-stimulated STAT3 phosphorylation in TF-1 cells
- Assay type: cell-based
- Set-up: endogenous in cells; host or cells: TF-1 cells (ATCC)
- condition_notes: IL-6 (30 ng/mL), pSTAT3, read-out: IC50 Cell JAK1
pIC50: −log10 of the molar value.
measure: pIC50

A selection of reference data follows.
compound	pIC50
CCC(C(=O)Nc1nccc2c(-c3nc(Nc4cn(C)nc4OC)ncc3C)c[nH]c12)N1CCC(O)C1 (stereo not shown) [Example 8]	6.00 to 7.00
COCCNC(=O)Nc1nccc2c(-c3nc(Nc4cccc(S(C)(=O)=O)c4F)ncc3C)c[nH]c12 [Example 32]	< 6.00

Query: pIC50; subject: COc1nn(C)cc1Nc1ncc(C)c(-c2c[nH]c3c(NC(=O)[C@@H](C)N4CCOCC4)nccc23)n1 [Example 7]
Reply: 6.00 to 7.00

Query: I would be grateful if you could share the reported pIC50 for CCC(C(=O)Nc1nccc2c(-c3nc(Nc4cn(C)nc4OC)ncc3C)c[nH]c12)N1CC(C)N(C)C(C)C1 (stereo not shown) [Example 10] .
Reply: < 6.00

Query: Query (compound): CC[C@H](C(=O)Nc1nccc2c(-c3nc(Nc4cn(C)nc4OC)ncc3C)c[nH]c12)N1CCN(C)CC1 [Example 4] ; field requested: pIC50
Reply: > 7.00

Query: Which pIC50 is listed for CCC(C(=O)Nc1nccc2c(-c3nc(Nc4cn(C)nc4OC)ncc3C)c[nH]c12)N1CCN(C)CC1 (stereo not shown) [Example 2] ?
Reply: > 7.00

Query: Field request: pIC50 | item: CCC(C(=O)Nc1nccc2c(-c3nc(Nc4cccc(S(=O)(=O)CC)c4F)ncc3C)c[nH]c12)N1CCN(C)CC1 (stereo not shown) [Example 28]
Reply: 6.00 to 7.00

----------
Notes on pIC50 obtained with UniProt P52333.
Sequence (P52333 whole entry): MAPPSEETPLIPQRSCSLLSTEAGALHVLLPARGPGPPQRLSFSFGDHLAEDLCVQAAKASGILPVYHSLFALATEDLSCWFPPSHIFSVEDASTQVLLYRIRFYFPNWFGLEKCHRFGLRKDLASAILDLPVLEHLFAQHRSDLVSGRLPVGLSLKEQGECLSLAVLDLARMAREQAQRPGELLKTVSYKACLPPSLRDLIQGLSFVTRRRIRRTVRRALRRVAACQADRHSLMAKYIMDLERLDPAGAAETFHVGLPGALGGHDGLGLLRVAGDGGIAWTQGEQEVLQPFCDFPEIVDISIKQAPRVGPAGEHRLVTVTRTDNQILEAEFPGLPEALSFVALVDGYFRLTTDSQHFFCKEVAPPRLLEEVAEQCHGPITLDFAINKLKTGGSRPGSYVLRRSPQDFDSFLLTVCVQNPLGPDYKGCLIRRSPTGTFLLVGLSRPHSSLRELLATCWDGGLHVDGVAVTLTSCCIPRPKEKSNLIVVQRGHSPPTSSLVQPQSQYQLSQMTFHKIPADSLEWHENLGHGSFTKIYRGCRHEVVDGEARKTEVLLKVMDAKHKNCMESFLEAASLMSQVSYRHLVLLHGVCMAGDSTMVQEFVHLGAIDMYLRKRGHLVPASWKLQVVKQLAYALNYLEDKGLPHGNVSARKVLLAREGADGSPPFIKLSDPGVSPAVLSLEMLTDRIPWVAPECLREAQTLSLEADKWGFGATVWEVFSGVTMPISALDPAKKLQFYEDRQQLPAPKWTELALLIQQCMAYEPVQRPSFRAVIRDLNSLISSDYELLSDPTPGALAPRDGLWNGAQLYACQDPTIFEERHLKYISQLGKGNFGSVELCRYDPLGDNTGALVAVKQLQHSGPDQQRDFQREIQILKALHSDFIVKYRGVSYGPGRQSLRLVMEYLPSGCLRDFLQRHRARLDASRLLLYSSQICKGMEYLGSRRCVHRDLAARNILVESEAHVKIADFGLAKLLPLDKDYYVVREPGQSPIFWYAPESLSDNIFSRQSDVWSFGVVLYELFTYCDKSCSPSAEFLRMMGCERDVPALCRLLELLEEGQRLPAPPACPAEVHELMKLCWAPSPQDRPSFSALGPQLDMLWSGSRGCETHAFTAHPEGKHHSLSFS
pIC50: −log10 of the molar value.

Observe how each entry below is paired with its result.
molecule	pIC50
COc1nn(C)cc1Nc1ncc(C)c(-c2c[nH]c3c(NC(N)=O)nccc23)n1 [Example 12]	> 6.30
CCC(C(=O)Nc1nccc2c(-c3nc(Nc4cn(C)nc4OC)ncc3C)c[nH]c12)N1CCC(N(C)C)CC1 (centres unmarked) [Example 9]	> 6.30
Cc1cnc(Nc2cccc(S(C)(=O)=O)c2F)nc1-c1c[nH]c2c(NC(=O)NC(C)C)nccc12 [Example 30]	> 6.30
CCC(C(=O)Nc1nccc2c(-c3nc(Nc4cccc(S(C)(=O)=O)c4F)ncc3C)c[nH]c12)N1CCN(C)CC1 (centres unmarked) [Example 19]	5.00 to 6.30

Query: If you can, please state the reported pIC50 value of CCC(C(=O)Nc1nccc2c(-c3nc(Nc4cccc(S(=O)(=O)CC)c4F)ncc3C)c[nH]c12)N1CCN(C)CC1 (centres unmarked) [Example 28] .
Reply: 5.00 to 6.30

----------
- tgt: JAK2 (Homo sapiens, UniProt O60674)
- Sequence (O60674 whole entry): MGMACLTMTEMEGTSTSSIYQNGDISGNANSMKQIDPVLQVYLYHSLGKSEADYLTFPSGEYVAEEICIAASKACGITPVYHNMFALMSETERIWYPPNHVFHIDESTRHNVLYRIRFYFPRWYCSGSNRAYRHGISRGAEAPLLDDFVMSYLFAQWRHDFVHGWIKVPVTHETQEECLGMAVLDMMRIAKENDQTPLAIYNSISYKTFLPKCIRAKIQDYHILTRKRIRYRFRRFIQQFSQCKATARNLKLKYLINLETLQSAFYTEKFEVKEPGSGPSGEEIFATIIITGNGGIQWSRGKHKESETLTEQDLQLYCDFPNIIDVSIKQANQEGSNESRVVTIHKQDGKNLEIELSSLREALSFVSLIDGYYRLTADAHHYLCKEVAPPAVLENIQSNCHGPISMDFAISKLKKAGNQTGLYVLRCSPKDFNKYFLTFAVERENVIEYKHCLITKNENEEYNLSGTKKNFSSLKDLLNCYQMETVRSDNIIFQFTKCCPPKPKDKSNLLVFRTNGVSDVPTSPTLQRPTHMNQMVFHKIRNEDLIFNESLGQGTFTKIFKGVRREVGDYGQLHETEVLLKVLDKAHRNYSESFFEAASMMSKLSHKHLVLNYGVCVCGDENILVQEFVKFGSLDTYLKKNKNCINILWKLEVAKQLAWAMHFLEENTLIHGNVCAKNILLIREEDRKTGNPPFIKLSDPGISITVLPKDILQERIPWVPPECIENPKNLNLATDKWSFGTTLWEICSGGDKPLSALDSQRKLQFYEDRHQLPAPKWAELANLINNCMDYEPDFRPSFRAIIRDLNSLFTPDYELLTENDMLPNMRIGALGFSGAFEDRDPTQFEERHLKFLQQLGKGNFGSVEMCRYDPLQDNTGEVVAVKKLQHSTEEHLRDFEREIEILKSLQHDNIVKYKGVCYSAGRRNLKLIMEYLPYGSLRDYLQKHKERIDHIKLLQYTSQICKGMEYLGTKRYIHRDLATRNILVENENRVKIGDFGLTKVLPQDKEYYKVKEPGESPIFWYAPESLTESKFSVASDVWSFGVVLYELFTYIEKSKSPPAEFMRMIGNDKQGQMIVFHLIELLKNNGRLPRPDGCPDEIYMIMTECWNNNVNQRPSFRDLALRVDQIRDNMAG
- protocol_text: Human whole blood JAK2 activity assay: GM-CSF-induced STAT5 phosphorylation (CD33+ cells)
- Type: cell-based
- Parameters: endogenous in cells
- condition_notes: GM-CSF (20 ng/mL), read-out: IC50_JAK2 (GM-CSF/pSTAT5)
measure: IC50

Query: Value wanted: IC50 (JAK2 (Homo sapiens, UniProt O60674)) of entry CC[C@H](C(=O)Nc1nccc2c(-c3nc(Nc4cn(C)nc4OC)ncc3C)c[nH]c12)N1CCN(C)CC1
Reply: > 20 µM

----------
- tgt: JAK1 (Homo sapiens, UniProt P23458)
- protocol_text: Human whole blood JAK1 activity assay: IL-6-induced STAT1 phosphorylation (CD4+ T cells)
- Type: cell-based
- Parameters: endogenous in cells
- condition_notes: IL-6 (100 ng/mL), read-out: IC50_JAK1 (IL6/pSTAT1)
measure: IC50

Query: For CC[C@H](C(=O)Nc1nccc2c(-c3nc(Nc4cn(C)nc4OC)ncc3C)c[nH]c12)N1CCN(C)CC1 , what is its reported IC50?
Reply: < 500 nM

----------
- tgt: JAK2 (Homo sapiens, UniProt O60674)
- protocol_text: In vitro JAK2 kinase activity assay (HTRF kinEASE TK)
- Assay type: biochemical
- Design: purchased Carna Biosciences
- condition_notes: 2.7 μM ATP, 25 minutes, room temperature; read-out: IC50 JAK2 (enzyme activity assay)
measure: IC50

Illustrative cases are given below, each with its answer.
molecule	measure	result
CC[C@@H](C(=O)Nc1nccc2c(-c3nc(Nc4cn(C)nc4OC)ncc3C)c[nH]c12)N1CCN(C)CC1 [Example 3]	IC50	< 100 nM
CCC(C(=O)Nc1ncnc2c(-c3nc(Nc4cccc(S(C)(=O)=O)c4F)ncc3C)c[nH]c12)N1CCN(C)CC1 (centres unmarked) [Example 29]	IC50	100 to 10000 nM
CCC(C(=O)Nc1nccc2c(-c3nc(Nc4cccc(S(C)(=O)=O)c4F)ncc3C)c[nH]c12)N1CC2(CCN(C)CC2)C1 (centres unmarked) [Example 24]	IC50	100 to 10000 nM
CCC(C(=O)Nc1nccc2c(-c3nc(Nc4cccc(S(=O)(=O)CC)c4F)ncc3C)c[nH]c12)N1CCN(C)CC1 (centres unmarked) [Example 28]	IC50	< 100 nM

Query: Recorded IC50 for COc1nn(C)cc1Nc1ncc(C)c(-c2c[nH]c3c(NC(=O)C(C(C)C)N4CCN(C)CC4)nccc23)n1 (centres unmarked) [Example 6] , please?
Reply: < 100 nM

Query: Record request: IC50 value, item CCC(C(=O)Nc1nccc2c(-c3nc(Nc4cccc(NS(C)(=O)=O)c4F)ncc3C)c[nH]c12)N1CCN(C)CC1 (centres unmarked) [Example 22]
Reply: < 100 nM

Query: Field request: IC50 | item: COc1nn(C)cc1Nc1nccc(-c2c[nH]c3c(NC(=O)[C@@H](C)N4CCN(C)CC4)nccc23)n1 [Example 1]
Reply: 100 to 10000 nM

Query: Name the reported IC50 value associated with the molecule CCC(C(=O)Nc1nccc2c(-c3nc(Nc4cn(C)nc4OC)ncc3C)c[nH]c12)N1CCN(C2COC2)CC1 (centres unmarked) [Example 18]
Reply: 100 to 10000 nM

Query: So what does the record say about IC50 for Cc1cnc(Nc2cccc(S(C)(=O)=O)c2F)nc1-c1c[nH]c2c(NC(=O)NC(C)C)ncnc12 [Example 33] ?
Reply: 100 to 10000 nM

Query: Report IC50 for Cc1cnc(Nc2cccc(S(C)(=O)=O)c2F)nc1-c1c[nH]c2c(NC(=O)NC(C)C)nccc12 [Example 30] please.
Reply: 100 to 10000 nM

Query: Look up IC50 for this molecule: COc1nn(C)cc1Nc1ncc(C)c(-c2c[nH]c3c(Nc4cn(C)nc4OC)nccc23)n1 [Example 5]
Reply: < 100 nM

Query: Can you share its IC50? I mean this molecule: CCC(C(=O)Nc1nccc2c(-c3nc(Nc4cccc(S(C)(=O)=O)c4F)ncc3C)c[nH]c12)N1CCN(C)CC1 (stereo in doubt) [Example 20]
Reply: 100 to 10000 nM

Query: Fill blank: measured IC50 of the molecule COCCNC(=O)Nc1nccc2c(-c3nc(Nc4cccc(S(C)(=O)=O)c4F)ncc3C)c[nH]c12 [Example 32] is ____.
Reply: < 100 nM

Query: Give the measured IC50 of COc1nn(C)cc1Nc1ncc(C)c(-c2c[nH]c3c(NC(=O)C(C)(C)N4CCN(C)CC4)nccc23)n1 [Example 11] .
Reply: 100 to 10000 nM

Cited source: patent US12234232B2
